System under test: panel of more than 300 wild-type and mutant kinases (313 kinase panel) (Homo sapiens, UniProt Q96KB5)
Sequence (Q96KB5 whole entry, change not shown): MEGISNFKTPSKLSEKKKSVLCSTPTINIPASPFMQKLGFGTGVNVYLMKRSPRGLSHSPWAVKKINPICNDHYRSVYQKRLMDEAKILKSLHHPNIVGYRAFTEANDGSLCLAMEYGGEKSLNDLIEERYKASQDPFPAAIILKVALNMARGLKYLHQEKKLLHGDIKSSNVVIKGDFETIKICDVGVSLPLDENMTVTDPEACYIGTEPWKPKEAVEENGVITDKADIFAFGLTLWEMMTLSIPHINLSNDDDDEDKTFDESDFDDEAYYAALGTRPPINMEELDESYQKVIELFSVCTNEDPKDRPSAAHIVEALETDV
Measurement protocol: Kinase profiling in a biochemical assay panel (mobility shift assays and ELISA), %-inhibition at 1 μM; selectivity entropy
Condition description: kinase PBK; 1 μM
Give measured %-inhibition of PBK for each item. Keep answers brief.
Give bare numbers, in %.

Illustrative cases are given below, each with its answer.
Exercise: What value of %-inhibition of PBK has been reported for the following compound? O=S(=O)(c1cccc2cnccc12)N1CCCNCC1 [fasudil]
Solution: -2.33

Exercise: What value of %-inhibition of PBK has been reported for the following compound? Cc1ccc(Nc2nccc(N(C)c3ccc4c(C)n(C)nc4c3)n2)cc1S(N)(=O)=O [pazopanib]
Solution: -5

Exercise: What value of %-inhibition of PBK has been reported for the following compound? CC(C)(C)c1nc(-c2cccc(NS(=O)(=O)c3c(F)cccc3F)c2F)c(-c2ccnc(N)n2)s1 [dabrafenib]
Solution: 12

Dear reader, for each entry below, please note its %-inhibition of PBK.
1. CCCS(=O)(=O)Nc1ccc(F)c(C(=O)c2c[nH]c3ncc(-c4ccc(Cl)cc4)cc23)c1F [vemurafenib]
2. COc1cc2c(Nc3ccc(Br)cc3F)ncnc2cc1OCC1CCN(C)CC1 [vandetanib]
3. C[C@@H](Oc1cc(-c2cnn(C3CCNCC3)c2)cnc1N)c1c(Cl)ccc(F)c1Cl [crizotinib]
4. COc1cc2nccc(Oc3ccc(NC(=O)C4(C(=O)Nc5ccc(F)cc5)CC4)cc3)c2cc1OC [cabozantinib]
5. Cc1cn(-c2cc(NC(=O)c3ccc(C)c(Nc4nccc(-c5cccnc5)n4)c3)cc(C(F)(F)F)c2)cn1 [nilotinib]

Solution:
1: -12; 2: -21; 3: -14; 4: -4.29; 5: -8

Dear reader, for each entry below, please note its %-inhibition of PBK.
1. CO[C@H]1C[C@@H]2CC[C@@H](C)[C@@](O)(O2)C(=O)C(=O)N2CCCC[C@H]2C(=O)O[C@H]([C@H](C)C[C@@H]2CC[C@@H](OCCO)[C@H](OC)C2)CC(=O)[C@H](C)/C=C(\C)[C@@H](O)[C@@H](OC)C(=O)[C@H](C)C[C@H](C)/C=C/C=C/C=C/1C [everolimus]
2. CS(=O)(=O)CCNCc1ccc(-c2ccc3ncnc(Nc4ccc(OCc5cccc(F)c5)c(Cl)c4)c3c2)o1 [lapatinib]
3. CN(C)C/C=C/C(=O)Nc1cc2c(Nc3ccc(F)c(Cl)c3)ncnc2cc1O[C@H]1CCOC1 [afatinib]

Solution:
1. -10
2. 6
3. -3

Dear reader, for each entry below, please note its %-inhibition of PBK.
1. Cc1ccc(C(=O)Nc2ccc(CN3CCN(C)CC3)c(C(F)(F)F)c2)cc1C#Cc1cnc2cccnn12 [ponatinib]
2. CC(=O)Nc1cccc(-n2c(=O)n(C3CC3)c(=O)c3c(Nc4ccc(I)cc4F)n(C)c(=O)c(C)c32)c1 [trametinib]
3. N#CC[C@H](C1CCCC1)n1cc(-c2ncnc3[nH]ccc23)cn1 [ruxolitinib]

Solution:
1. -14
2. -3.79
3. -19

* * *

System under test: panel of more than 300 wild-type and mutant kinases (313 kinase panel) (Homo sapiens, UniProt Q9P289)
Sequence (Q9P289 whole entry, change not shown): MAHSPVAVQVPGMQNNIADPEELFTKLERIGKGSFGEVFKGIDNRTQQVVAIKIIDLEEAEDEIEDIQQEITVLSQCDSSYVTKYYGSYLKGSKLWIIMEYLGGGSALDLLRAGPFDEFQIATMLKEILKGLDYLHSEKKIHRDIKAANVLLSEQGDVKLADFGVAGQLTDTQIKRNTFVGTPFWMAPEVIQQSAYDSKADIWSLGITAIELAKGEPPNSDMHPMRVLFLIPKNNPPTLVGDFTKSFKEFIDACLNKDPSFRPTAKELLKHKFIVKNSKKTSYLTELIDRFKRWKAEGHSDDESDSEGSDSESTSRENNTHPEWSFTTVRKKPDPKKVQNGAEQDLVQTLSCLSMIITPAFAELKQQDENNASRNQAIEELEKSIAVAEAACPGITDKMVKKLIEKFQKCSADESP
Measurement protocol: Kinase profiling in a biochemical assay panel (mobility shift assays and ELISA), %-inhibition at 1 μM; selectivity entropy
Condition description: kinase MST4; 1 μM
Give measured %-inhibition of MST4 for each item. Keep answers brief.
Give bare numbers, in %.

Illustrative cases are given below, each with its answer.
Exercise: What value of %-inhibition of MST4 has been reported for the following compound? CO[C@H]1C[C@@H]2CC[C@@H](C)[C@@](O)(O2)C(=O)C(=O)N2CCCC[C@H]2C(=O)O[C@H]([C@H](C)C[C@@H]2CC[C@@H](OC(=O)C(C)(CO)CO)[C@H](OC)C2)CC(=O)[C@H](C)/C=C(\C)[C@@H](O)[C@@H](OC)C(=O)[C@H](C)C[C@H](C)/C=C/C=C/C=C/1C [temsirolimus]
Solution: -3.42

Exercise: What value of %-inhibition of MST4 has been reported for the following compound? CNC(=O)c1cc(Oc2ccc(NC(=O)Nc3ccc(Cl)c(C(F)(F)F)c3)c(F)c2)ccn1 [regorafenib]
Solution: 3.66

Exercise: What value of %-inhibition of MST4 has been reported for the following compound? CO[C@H]1C[C@@H]2CC[C@@H](C)[C@@](O)(O2)C(=O)C(=O)N2CCCC[C@H]2C(=O)O[C@H]([C@H](C)C[C@@H]2CC[C@@H](OCCO)[C@H](OC)C2)CC(=O)[C@H](C)/C=C(\C)[C@@H](O)[C@@H](OC)C(=O)[C@H](C)C[C@H](C)/C=C/C=C/C=C/1C [everolimus]
Solution: -5.58

Exercise: What value of %-inhibition of MST4 has been reported for the following compound? Cc1ccc(Nc2nccc(N(C)c3ccc4c(C)n(C)nc4c3)n2)cc1S(N)(=O)=O [pazopanib]
Solution: -3.23

Others:
Exercise: What value of %-inhibition of MST4 has been reported for the following compound? N#CC[C@H](C1CCCC1)n1cc(-c2ncnc3[nH]ccc23)cn1 [ruxolitinib]
Solution: -3

* * *

Give measured %-inhibition of MST3 for each item. Keep answers brief.
System under test: panel of more than 300 wild-type and mutant kinases (313 kinase panel) (Homo sapiens, UniProt Q9Y6E0)
Measurement protocol: Kinase profiling in a biochemical assay panel (mobility shift assays and ELISA), %-inhibition at 1 μM; selectivity entropy
Condition description: kinase MST3; 1 μM

Illustrative cases are given below, each with its answer.
Exercise: What value of %-inhibition of MST3 has been reported for the following compound? "CO[C@H]1C[C@@H]2CC[C@@H](C)[C@@](O)(O2)C(=O)C(=O)N2CCCC[C@H]2C(=O)O[C@H]([C@H](C)C[C@@H]2CC[C@@H](OC(=O)C(C)(CO)CO)[C@H](OC)C2)CC(=O)[C@H](C)/C=C(\C)[C@@H](O)[C@@H](OC)C(=O)[C@H](C)C[C@H](C)/C=C/C=C/C=C/1C"
Solution: -3.6%

Exercise: What value of %-inhibition of MST3 has been reported for the following compound? "COc1cc2c(Nc3ccc(Br)cc3F)ncnc2cc1OCC1CCN(C)CC1"
Solution: 7%

Exercise: What value of %-inhibition of MST3 has been reported for the following compound? "CCCS(=O)(=O)Nc1ccc(F)c(C(=O)c2c[nH]c3ncc(-c4ccc(Cl)cc4)cc23)c1F"
Solution: -1.73%

Exercise: What value of %-inhibition of MST3 has been reported for the following compound? "CNC(=O)c1cc(Oc2ccc(NC(=O)Nc3ccc(Cl)c(C(F)(F)F)c3)c(F)c2)ccn1"
Solution: -6.62%

Exercise: What value of %-inhibition of MST3 has been reported for the following compound? "Cc1ccc(Nc2nccc(N(C)c3ccc4c(C)n(C)nc4c3)n2)cc1S(N)(=O)=O"
Solution: -4.48%

Exercise: What value of %-inhibition of MST3 has been reported for the following compound? "CO[C@H]1C[C@@H]2CC[C@@H](C)[C@@](O)(O2)C(=O)C(=O)N2CCCC[C@H]2C(=O)O[C@H]([C@H](C)C[C@@H]2CC[C@@H](OCCO)[C@H](OC)C2)CC(=O)[C@H](C)/C=C(\C)[C@@H](O)[C@@H](OC)C(=O)[C@H](C)C[C@H](C)/C=C/C=C/C=C/1C"
Solution: 0.288%

Dear reader, for each entry below, please note its %-inhibition of MST3.
1. CC(=O)Nc1cccc(-n2c(=O)n(C3CC3)c(=O)c3c(Nc4ccc(I)cc4F)n(C)c(=O)c(C)c32)c1
2. CS(=O)(=O)CCNCc1ccc(-c2ccc3ncnc(Nc4ccc(OCc5cccc(F)c5)c(Cl)c4)c3c2)o1
3. CC(C)(C)c1nc(-c2cccc(NS(=O)(=O)c3c(F)cccc3F)c2F)c(-c2ccnc(N)n2)s1
4. COc1cc2nccc(Oc3ccc(NC(=O)C4(C(=O)Nc5ccc(F)cc5)CC4)cc3)c2cc1OC [cabozantinib]
5. Cc1nc(Nc2ncc(C(=O)Nc3c(C)cccc3Cl)s2)cc(N2CCN(CCO)CC2)n1
6. O=S(=O)(c1cccc2cnccc12)N1CCCNCC1

Solution:
["1.75%", "-1.84%", "0.532%", "0.432%", "20%", "-1.29%"]

Dear reader, for each entry below, please note its %-inhibition of MST3.
1. N#CC[C@H](C1CCCC1)n1cc(-c2ncnc3[nH]ccc23)cn1
2. C[C@@H](Oc1cc(-c2cnn(C3CCNCC3)c2)cnc1N)c1c(Cl)ccc(F)c1Cl
3. Cc1cn(-c2cc(NC(=O)c3ccc(C)c(Nc4nccc(-c5cccnc5)n4)c3)cc(C(F)(F)F)c2)cn1

Solution:
1. -1.15%
2. 11%
3. 0.797%

* * *

System under test: panel of more than 300 wild-type and mutant kinases (313 kinase panel) (Homo sapiens, UniProt Q9NZJ5)
Measurement protocol: Kinase profiling in a biochemical assay panel (mobility shift assays and ELISA), %-inhibition at 1 μM; selectivity entropy
Condition description: kinase PEK; 1 μM
Parameter: %-inhibition of PEK (%)
Answers are plain numbers, in %.

Illustrative cases are given below, each with its answer.
Exercise: What value of %-inhibition of PEK has been reported for the following molecule? CO[C@H]1C[C@@H]2CC[C@@H](C)[C@@](O)(O2)C(=O)C(=O)N2CCCC[C@H]2C(=O)O[C@H]([C@H](C)C[C@@H]2CC[C@@H](OCCO)[C@H](OC)C2)CC(=O)[C@H](C)/C=C(\C)[C@@H](O)[C@@H](OC)C(=O)[C@H](C)C[C@H](C)/C=C/C=C/C=C/1C [everolimus]
Solution: 5.28

Exercise: What value of %-inhibition of PEK has been reported for the following molecule? C[C@@H](Oc1cc(-c2cnn(C3CCNCC3)c2)cnc1N)c1c(Cl)ccc(F)c1Cl [crizotinib]
Solution: 1.1

Exercise: What value of %-inhibition of PEK has been reported for the following molecule? CC(=O)Nc1cccc(-n2c(=O)n(C3CC3)c(=O)c3c(Nc4ccc(I)cc4F)n(C)c(=O)c(C)c32)c1 [trametinib]
Solution: 1.13

Exercise: What value of %-inhibition of PEK has been reported for the following molecule? CCCS(=O)(=O)Nc1ccc(F)c(C(=O)c2c[nH]c3ncc(-c4ccc(Cl)cc4)cc23)c1F [vemurafenib]
Solution: 11

Exercise: What value of %-inhibition of PEK has been reported for the following molecule? CNC(=O)c1cc(Oc2ccc(NC(=O)Nc3ccc(Cl)c(C(F)(F)F)c3)c(F)c2)ccn1 [regorafenib]
Solution: 12

Exercise: What value of %-inhibition of PEK has been reported for the following molecule? COc1cc2nccc(Oc3ccc(NC(=O)C4(C(=O)Nc5ccc(F)cc5)CC4)cc3)c2cc1OC [cabozantinib]
Solution: 79

Exercise: What value of %-inhibition of PEK has been reported for the following molecule? O=S(=O)(c1cccc2cnccc12)N1CCCNCC1 [fasudil]
Solution: -7.4

Exercise: What value of %-inhibition of PEK has been reported for the following molecule? N#CC[C@H](C1CCCC1)n1cc(-c2ncnc3[nH]ccc23)cn1 [ruxolitinib]
Solution: -0.459

Dear reader, for each entry below, please note its %-inhibition of PEK.
1. CN(C)C/C=C/C(=O)Nc1cc2c(Nc3ccc(F)c(Cl)c3)ncnc2cc1O[C@H]1CCOC1 [afatinib]
2. Cc1ccc(Nc2nccc(N(C)c3ccc4c(C)n(C)nc4c3)n2)cc1S(N)(=O)=O [pazopanib]

Solution:
[12, 2.38]
